Test: Fluorescence excitation/emission of the styryl dye library compounds
Type: physicochemical
Conditions: EX/EM peak no. 1
Known EX(nm) of a selection of molecules

{"molecule": "C[n+]1c(C=Cc2ccc(OCc3ccccc3)c(OCc3ccccc3)c2)ccc2ccccc21.[I-] [Compound H12]", "EX(nm)": "430 nm"}
{"molecule": "Cc1ccnc(-c2cc(C=Cc3c4ccccc4cc4ccccc34)cc[n+]2C)c1.[I-] [Compound J34]", "EX(nm)": "430 nm"}
{"molecule": "O=[N+]([O-])c1ccc(C=Cc2cc[n+](C34CC5CC(CC(C5)C3)C4)cc2)cc1.[Br-] [Compound B22]", "EX(nm)": "410-420 nm"}
{"molecule": "COc1ccc2c(ccc(C=Cc3ccc([N+](=O)[O-])cc3)[n+]2C)c1.[I-] [Compound I22]", "EX(nm)": "360 nm"}
{"molecule": "Cc1cccc(/C=C/c2ccc(-c3ccccc3)cc2)[n+]1C.[I-] [Compound L17]", "EX(nm)": "420 nm"}
{"molecule": "COc1ccc(/C=C/c2cc[n+](C34CC5CC(CC(C5)C3)C4)cc2)cc1OC.[Br-] [Compound B11]", "EX(nm)": "340-440 nm"}
{"molecule": "Cc1ccnc(-c2cc(/C=C/c3cccc4ccccc34)cc[n+]2C)c1.[I-] [Compound J32]", "EX(nm)": "350-450 nm"}
{"molecule": "COc1ccc2c(ccc(C=Cc3c(OC)ccc4ccccc34)[n+]2C)c1.[I-] [Compound I23]", "EX(nm)": "340-360 nm"}
{"molecule": "C[n+]1ccc(C=Cc2cccc3ccccc23)c2ccccc21.[I-] [Compound G32]", "EX(nm)": "430 nm"}
{"molecule": "CN(C)c1ccc(C=Cc2cccc[n+]2C)cc1.[I-] [Compound C19]", "EX(nm)": "460 (broad) nm"}
{"molecule": "C[n+]1c(C=Cc2c[nH]c3ccccc23)ccc2ccccc21.[I-] [Compound H24]", "EX(nm)": "400-500 nm"}
{"molecule": "C[n+]1ccc(/C=C/c2ccc3c(c2)Cc2ccccc2-3)c2ccccc21.[I-] [Compound G28]", "EX(nm)": "450 nm"}
{"molecule": "CCc1ccc(/C=C/c2c[nH]c3ccccc23)[n+](C)c1.[I-] [Compound E24]", "EX(nm)": "430 nm"}
{"molecule": "CN(C)c1ccc(C=Cc2cccc[n+]2C)c2ccccc12.[I-] [Compound C27]", "EX(nm)": "450 nm"}
{"molecule": "Cc1ccnc(-c2cc(C=Cc3ccccc3[N+](=O)[O-])cc[n+]2C)c1.[I-] [Compound J20]", "EX(nm)": "420 nm"}
{"molecule": "COc1ccc(C=Cc2cc[n+](C)c(-c3cc(C)ccn3)c2)cc1O.[I-] [Compound J15]", "EX(nm)": "340-440 nm"}
{"molecule": "Fc1c(F)c(F)c(C=Cc2cc[n+](C34CC5CC(CC(C5)C3)C4)cc2)c(F)c1F.[Br-] [Compound B31]", "EX(nm)": "430 nm"}

* * *

Assay: Fluorescence excitation/emission of the styryl dye library compounds
Assay type: physicochemical
Details: EX/EM peak no. 1

{"molecule": "C[n+]1ccc(C=Cc2c(F)c(F)c(F)c(F)c2F)c2ccccc21.[I-] [Compound G31]", "EM(nm)": "650 nm"}
{"molecule": "CCc1ccc(C=Cc2ccccn2)[n+](C)c1.[I-] [Compound E40]", "EM(nm)": "610 nm"}
{"molecule": "C[n+]1ccc(C=Cc2ccccn2)cc1Br.[I-] [Compound F40]", "EM(nm)": "640 nm"}
{"molecule": "C[n+]1c(C=Cc2ccc3c(c2)Cc2ccccc2-3)ccc2ccccc21.[I-] [Compound H28]", "EM(nm)": "660 nm"}
{"molecule": "COc1ccc2c(ccc(C=Cc3ccc4ccc5cccc6ccc3c4c56)[n+]2C)c1.[I-] [Compound I41]", "EM(nm)": "630 nm"}
{"molecule": "Cc1ccnc(-c2cc(/C=C/Cc3ccccc3)cc[n+]2C)c1.[I-] [Compound J1]", "EM(nm)": "620 nm"}
{"molecule": "CN(C)c1ccc(C=Cc2cc[n+](C)cc2)c2ccccc12.[I-] [Compound A27]", "EM(nm)": "640 nm"}
{"molecule": "C[n+]1ccc(/C=C/c2ccc3c(c2)Cc2ccccc2-3)c2ccccc21.[I-] [Compound G28]", "EM(nm)": "620 nm"}
{"molecule": "C[n+]1ccccc1C=Cc1ccc(OCc2ccccc2)c(OCc2ccccc2)c1.[I-] [Compound C12]", "EM(nm)": "520 nm"}
{"molecule": "Cc1cccc(C=CC=Cc2ccccc2)[n+]1C.[I-] [Compound L35]", "EM(nm)": "510 nm"}
{"molecule": "COc1ccc(C=Cc2cc[n+](C)c(-c3cc(C)ccn3)c2)cc1OC.[I-] [Compound J11]", "EM(nm)": "560 nm"}
{"molecule": "COc1ccc2c(ccc(C=Cc3c(F)c(F)c(F)c(F)c3F)[n+]2C)c1.[I-] [Compound I31]", "EM(nm)": "610 nm"}
{"molecule": "Cc1ccnc(-c2cc(C=Cc3ccc(N(C)C)c4ccccc34)cc[n+]2C)c1.[I-] [Compound J27]", "EM(nm)": "670 nm"}
{"molecule": "COc1ccc2ccccc2c1C=Cc1cccc(C)[n+]1C.[I-] [Compound L23]", "EM(nm)": "570 nm"}
{"molecule": "COc1ccc2c(ccc(/C=C/c3ccc(NC(C)=O)cc3)[n+]2C)c1.[I-] [Compound I18]", "EM(nm)": "650 nm"}
{"molecule": "C[n+]1c(C=Cc2ccc(-c3ccccc3)cc2)ccc2ccccc21.[I-] [Compound H17]", "EM(nm)": "650 nm"}
{"molecule": "C[n+]1c(C=Cc2cccc([N+](=O)[O-])c2)ccc2ccccc21.[I-] [Compound H21]", "EM(nm)": "630 nm"}
{"molecule": "CN(C)c1ccc(C=CC=Cc2cc[n+](C)cc2)cc1.[I-] [Compound A37]", "EM(nm)": "580 nm"}
